This listing pairs compounds with measured MIC.
tested on: Staphylococcus aureus NRS384 (MRSA); assay: Broth microdilution MIC, S. aureus NRS384 (MRSA); assay type: cell-based; settings: Staphylococcus aureus, 20 h, read-out: MIC NRS 384 (MRSA)
Where a name gives a salt, the structure may show the parent alone.

Examples from the recorded data:
- compound: "CN1CCC(n2ncc3nc(NCc4ccc(Cl)c(Cl)c4)[nH]c(=O)c32)C1 (stereo not shown) [Compound 243, TFA salt]"
  result: "8 µg/mL"
- compound: "CC(C)(C)OC(=O)NCCOCCn1ncc2nc(NCc3ccc(Cl)c(Cl)c3)[nH]c(=O)c21"
  result: "> 64 µg/mL"

Okay, now this compound:
Query: Form field: reported MIC of O=c1[nH]c(NCc2ccc(Cl)c(Cl)c2)nc2cn(C3CCNC3)nc12 (stereo not shown) [Compound 215, TFA salt]
Reply: > 64 µg/mL

---

system: Enterococcus faecalis ATCC 29212; experiment: Broth microdilution MIC, E. faecalis ATCC 29212; type: cell-based; settings: ATCC29212, broth microdilution, 37° C., 20 hours, read-out: MIC E. faecalis ATCC 29212
recorded endpoint: MIC (µg/mL)
All answers are understood in µg/mL, so give the number only.

- compound: "O=c1[nH]c(NCc2ccc(Cl)c(Cl)c2)nc2cnn(Cc3nccs3)c12 [Compound 91]"
  tested on: "Enterococcus faecalis ATCC 29212"
  result number: 4
- compound: "O=c1[nH]c(NCc2ccc(Cl)c(Cl)c2)nc2cnn(CC3COCCO3)c12 (stereo not drawn) [Compound 105]"
  tested on: "Enterococcus faecalis ATCC 29212"
  result number: 8
- compound: "COCCOC/C=C/Cn1ncc2nc(NCc3ccc(Cl)c(Cl)c3)[nH]c(=O)c21 [Compound 193]"
  tested on: "Enterococcus faecalis ATCC 29212"
  result number: 8
- compound: "CN1CCN(CCn2ncc3nc(NCc4ccc(Cl)c(Cl)c4)[nH]c(=O)c32)CC1=O [Compound 60]"
  tested on: "Enterococcus faecalis ATCC 29212"
  result number: 8
- compound: "CN(C)CCOCCn1ncc2nc(NCc3ccc(Cl)c(Cl)c3)[nH]c(=O)c21.Cl [Compound 211]"
  tested on: "Enterococcus faecalis ATCC 29212"
  result number: 16

Query: Form field: reported MIC of Cl.Cl.O=c1[nH]c(NCc2ccc(Cl)c(Cl)c2)nc2cnn(C3CCN(CC4CCCNC4)CC3)c12 (stereo not drawn) [Compound 251]
Reply: 16

Query: Form field: reported MIC of N#Cc1nn(CCOCCO)c2c(=O)[nH]c(NCc3ccc(Cl)c(Cl)c3)nc12 [Compound 51]
Reply: 2

Query: Form field: reported MIC of CC(C)n1ncc2nc(NCc3ccc(Cl)c(Cl)c3)[nH]c(=O)c21 [Compound 130]
Reply: 4

Query: Form field: reported MIC of O=c1[nH]c(NCc2ccc(Cl)c(Cl)c2)nc2cnn(CCOC/C=N/O)c12 [Compound 191]
Reply: 8

Query: Form field: reported MIC of CN1CCN(CCn2ncc3nc(NCc4ccc(Cl)c(Cl)c4)[nH]c(=O)c32)CC1 [Compound 58]
Reply: 8

Query: Form field: reported MIC of Cl.O=c1[nH]c(NCc2ccc(Cl)c(Cl)c2)nc2cnn(CCNC3=NCCN3)c12 [Compound 295]
Reply: 64

Query: Form field: reported MIC of COCc1nnc(CCn2ncc3nc(NCc4ccc(Cl)c(Cl)c4)[nH]c(=O)c32)o1.Cl [Compound 235]
Reply: 8

Query: Form field: reported MIC of O=C(c1cccnc1)N1CCC(n2nc(F)c3nc(NCc4ccc(Cl)c(Cl)c4)[nH]c(=O)c32)CC1 [Compound 317]
Reply: 4

Query: Form field: reported MIC of Cl.O=C(c1cccnc1)N1CCC(n2ncc3nc(NCc4ccc(Cl)c(Cl)c4)[nH]c(=O)c32)CC1 [Compound 256]
Reply: 4

Query: Form field: reported MIC of Cc1nn(C)c2c(=O)[nH]c(NCc3ccc(Cl)c(Cl)c3)nc12 [Compound 44]
Reply: 4

Query: Form field: reported MIC of Cl.O=c1[nH]c(NCc2ccc(Cl)c(Cl)c2)nc2cnn(CC3CNCCO3)c12 (stereo not drawn) [Compound 149]
Reply: 16

Query: Form field: reported MIC of Cn1ncc2nc(NCc3ccc(Cl)c(F)c3)[nH]c(=O)c21 [Compound 1]
Reply: 16

Query: Form field: reported MIC of Cl.O=c1[nH]c(NCc2ccc(Cl)c(Cl)c2)nc2cnn(CCN3CC(O)C3)c12 [Compound 70]
Reply: 64

Query: Form field: reported MIC of O=C(O)CCn1ncc2nc(NCc3ccc(Cl)c(Cl)c3)[nH]c(=O)c21 [Compound 229]
Reply: 64

Query: Form field: reported MIC of Cc1nnc(CCn2ncc3nc(NCc4ccc(Cl)c(Cl)c4)[nH]c(=O)c32)o1 [Compound 233]
Reply: 4

Query: Form field: reported MIC of Cn1ncc2nc(NCc3cccc(Cl)c3)[nH]c(=O)c21 [Compound 26]
Reply: 64

---

tested on: Enterococcus faecalis ATCC 29212; assay: Broth microdilution MIC, E. faecalis ATCC 29212; format: cell-based; settings: ATCC29212, broth microdilution, 37° C., 20 hours, read-out: MIC E. faecalis ATCC 29212
This listing pairs molecules with measured log10(MIC).
Lab note - MIC converted to log10 from values in µg/mL.

- molecule: "Cl.O=c1[nH]c(NCc2ccc(Cl)c(Cl)c2)nc2cnn(CCN3C[C@@H]4C[C@H]3CO4)c12"
  recorded endpoint: "log10(MIC)"
  result number: 0.60

Query: Give log10(MIC) (Enterococcus faecalis ATCC 29212) of the following molecule: `Cn1ncc2nc(NCc3ccc(Cl)cc3)[nH]c(=O)c21`
Reply: 1.20

Query: Give log10(MIC) (Enterococcus faecalis ATCC 29212) of the following molecule: `O=c1[nH]c(NCc2ccc(Cl)c(Cl)c2)nc2cnn(C[C@@H]3CO[C@@H](CO)CO3)c12`
Reply: 0.90

Query: Give log10(MIC) (Enterococcus faecalis ATCC 29212) of the following molecule: `Cl.NCCOCCn1ncc2nc(NCc3ccc(Cl)c(Cl)c3)[nH]c(=O)c21`
Reply: 1.51

Query: Give log10(MIC) (Enterococcus faecalis ATCC 29212) of the following molecule: `O=C(Cn1ncc2nc(NCc3ccc(Cl)c(Cl)c3)[nH]c(=O)c21)N1CCOCC1`
Reply: 1.20

Query: Give log10(MIC) (Enterococcus faecalis ATCC 29212) of the following molecule: `O=c1[nH]c(NCc2ccc(Cl)c(Cl)c2)nc2cnn(CCOC3CCS(=O)(=O)CC3)c12`
Reply: 0.90

Query: Give log10(MIC) (Enterococcus faecalis ATCC 29212) of the following molecule: `O=c1[nH]c(NCc2ccc(Cl)c(Cl)c2)nc2cnn(C[C@@H]3CO[C@H](CO)CO3)c12`
Reply: 0.90

Query: Give log10(MIC) (Enterococcus faecalis ATCC 29212) of the following molecule: `O=c1[nH]c(NCc2ccc(Cl)c(Cl)c2)nc2cnn(CCCO)c12`
Reply: 0.60

Query: Give log10(MIC) (Enterococcus faecalis ATCC 29212) of the following molecule: `O=c1[nH]c(NCc2ccc(Cl)c(Cl)c2)nc2cnn(CCNCCn3ncc4nc(NCc5ccc(Cl)c(Cl)c5)[nH]c(=O)c43)c12`
Reply: 0.90

---

system: Enterococcus faecalis ATCC 29212; experiment: Broth microdilution MIC, E. faecalis ATCC 29212; type: cell-based; conditions: ATCC29212, broth microdilution, 37° C., 20 hours, read-out: MIC E. faecalis ATCC 29212
Response field label: string, one of 1 (yes) (MIC strictly below 20 µg/mL) or 0 (no).

Solved entries (count: 3):
- compound: "COC/C=C/Cn1ncc2nc(NCc3ccc(Cl)c(Cl)c3)[nH]c(=O)c21"
  discrete label: "1 (yes)"
- compound: "O=c1[nH]c(NCc2ccc(Cl)c(Cl)c2)nc2c(-c3ncco3)nn(CCOCCO)c12"
  discrete label: "0 (no)"
- compound: "O=c1[nH]c(NCc2ccc(Cl)c(Cl)c2)nc2cnn(C3CC3)c12"
  discrete label: "1 (yes)"

# next compound below
Query: Would you kindly verify if MIC of `CNCCn1ncc2nc(NCc3ccc(Cl)c(Cl)c3)[nH]c(=O)c21` is strictly less than 20 µg/mL?
Reply: 0 (no)

---

Test system: Streptococcus pneumoniae ATCC 49619
Assay: Broth microdilution MIC, S. pneumoniae ATCC 49619
Assay type: cell-based
Conditions: ATCC49619, broth microdilution, 37° C., 20 hours, read-out: MIC S. pneumoniae ATCC 49619
Description: Bacteria tested are Staphylococcus aureus NRS384 (a methicillin-resistant Staphylococcus aureus, MRSA), Staphylococcus aureus ATCC 29213 (a methicillin-sensitive Staphylococcus aureus, MSSA), Streptococcus pneumoniae ATCC 49619, Enterococcus faecalis ATCC 29212, Enterococcus faecium ATCC 700221 (a vancomycin-resistant enterococcus, VRE), Bacillus subtilis ATCC 6633, and Escherichia coli ATCC 25922. […]
recorded endpoint: MIC (µg/mL)
All answers are understood in µg/mL, so give the number only.

- molecule: "O=c1[nH]c(NCc2ccc(Cl)c(Cl)c2)nc2cnn(CCN3CCS(=O)(=O)CC3)c12 [Compound 59]"
  tested on: "Streptococcus pneumoniae ATCC 49619"
  MIC / µg/mL: 4

Query: Give MIC (Streptococcus pneumoniae ATCC 49619) of the following molecule: Cl.O=C(c1ccncc1)N1CCC(n2nc(F)c3nc(NCc4ccc(F)c(F)c4)[nH]c(=O)c32)CC1 [Compound 319]
Reply: 4

Query: Give MIC (Streptococcus pneumoniae ATCC 49619) of the following molecule: O=c1[nH]c(NCc2ccc(Cl)c(Cl)c2)nc2cnn(CCCOC3CC(O)C3)c12 (centres unmarked) [Compound 179]
Reply: 4

Query: Give MIC (Streptococcus pneumoniae ATCC 49619) of the following molecule: CC(C)OC(=O)CCCn1ncc2nc(NCc3ccc(Cl)c(Cl)c3)[nH]c(=O)c21 [Compound 206]
Reply: 16

Query: Give MIC (Streptococcus pneumoniae ATCC 49619) of the following molecule: O=c1[nH]c(NCc2ccc(Cl)c(Cl)c2)nc2cnn(CCOC3COC3)c12 [Compound 178]
Reply: 4

Query: Give MIC (Streptococcus pneumoniae ATCC 49619) of the following molecule: COc1cccnc1C(=O)N1CCC(n2ncc3nc(NCc4ccc(Cl)c(Cl)c4)[nH]c(=O)c32)CC1.Cl [Compound 268]
Reply: 4

Query: Give MIC (Streptococcus pneumoniae ATCC 49619) of the following molecule: COCCOCCn1cc2nc(NCc3ccc(Cl)c(Cl)c3)[nH]c(=O)c2n1 [Compound 137]
Reply: 16

Query: Give MIC (Streptococcus pneumoniae ATCC 49619) of the following molecule: CC(C)(C)OC(=O)N1CCCC(CN2CCC(n3ncc4nc(NCc5ccc(Cl)c(Cl)c5)[nH]c(=O)c43)CC2)C1.Cl (centres unmarked) [Compound 250]
Reply: 8

Query: Give MIC (Streptococcus pneumoniae ATCC 49619) of the following molecule: Cl.Cl.O=c1[nH]c(NCc2ccc(Cl)c(Cl)c2)nc2cnn(C3CCN(CC4CCCCN4)CC3)c12 (centres unmarked) [Compound 249]
Reply: 4

Query: Give MIC (Streptococcus pneumoniae ATCC 49619) of the following molecule: Cl.NC(=O)C1CCN(CCn2ncc3nc(NCc4ccc(Cl)c(Cl)c4)[nH]c(=O)c32)CC1 [Compound 66]
Reply: 8

Query: Give MIC (Streptococcus pneumoniae ATCC 49619) of the following molecule: O=C(c1nccs1)N1CCC(n2ncc3nc(NCc4ccc(Cl)c(Cl)c4)[nH]c(=O)c32)CC1 [Compound 254]
Reply: 4

Query: Give MIC (Streptococcus pneumoniae ATCC 49619) of the following molecule: CC(CO)n1ncc2nc(NCc3ccc(Cl)c(Cl)c3)[nH]c(=O)c21 (centres unmarked) [Compound 228]
Reply: 8

Query: Give MIC (Streptococcus pneumoniae ATCC 49619) of the following molecule: COCC(OCCn1ncc2nc(NCc3ccc(Cl)c(Cl)c3)[nH]c(=O)c21)c1cccnc1.Cl (centres unmarked) [Compound 185]
Reply: 8

Query: Give MIC (Streptococcus pneumoniae ATCC 49619) of the following molecule: Cn1ncc2nc(NCc3ccc(Cl)cc3)[nH]c(=O)c21 [Compound 25]
Reply: 4

Query: Give MIC (Streptococcus pneumoniae ATCC 49619) of the following molecule: Cl.O=C([C@@H]1C[C@@H](O)CN1)N1CCC(n2ncc3nc(NCc4ccc(Cl)c(Cl)c4)[nH]c(=O)c32)CC1 [Compound 274]
Reply: 16

Query: Give MIC (Streptococcus pneumoniae ATCC 49619) of the following molecule: COc1ccncc1C(=O)N1CCC(n2ncc3nc(NCc4ccc(Cl)c(Cl)c4)[nH]c(=O)c32)CC1.Cl [Compound 266]
Reply: 4

Query: Give MIC (Streptococcus pneumoniae ATCC 49619) of the following molecule: Cl.N=C(N)NCCn1ncc2nc(NCc3ccc(Cl)c(Cl)c3)[nH]c(=O)c21 [Compound 292]
Reply: 64

Query: Give MIC (Streptococcus pneumoniae ATCC 49619) of the following molecule: CCOC(=O)CCCn1ncc2nc(NCc3ccc(Cl)c(Cl)c3)[nH]c(=O)c21 [Compound 205]
Reply: 8

Query: Give MIC (Streptococcus pneumoniae ATCC 49619) of the following molecule: Cc1cncc(C(=O)N2CCC(n3ncc4nc(NCc5ccc(Cl)c(Cl)c5)[nH]c(=O)c43)CC2)c1.Cl [Compound 261]
Reply: 4

Query: Give MIC (Streptococcus pneumoniae ATCC 49619) of the following molecule: O=c1[nH]c(NCc2ccc(Cl)c(Cl)c2)nc2cnn(Cc3nccs3)c12 [Compound 91]
Reply: 4

Query: Give MIC (Streptococcus pneumoniae ATCC 49619) of the following molecule: Cl.O=c1[nH]c(NCc2ccc(Cl)c(Cl)c2)nc2cnn(Cc3ccccn3)c12 [Compound 109]
Reply: 4
